Values compiled from patent US9018200B2.

biological target: human GPR119 (Homo sapiens); assay: Measurement of GPR119 signaling (cAMP assay) in HEK 293 cells stably transfected with human GPR119; format: cell-based; conditions: table of Examples 5-56
Sequence (Q8TDV5 1-308 limits assumed): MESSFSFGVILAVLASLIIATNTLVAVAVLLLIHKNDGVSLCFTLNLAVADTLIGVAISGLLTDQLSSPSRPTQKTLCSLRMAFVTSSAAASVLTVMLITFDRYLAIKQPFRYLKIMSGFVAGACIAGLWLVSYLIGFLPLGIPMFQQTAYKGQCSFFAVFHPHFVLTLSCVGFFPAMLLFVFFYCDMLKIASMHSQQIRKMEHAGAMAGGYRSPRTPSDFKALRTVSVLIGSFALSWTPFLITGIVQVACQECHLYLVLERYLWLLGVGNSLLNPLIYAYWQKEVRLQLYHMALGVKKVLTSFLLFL
pEC50: −log10 of the molar value.

compound-structure-string	pEC50
CC(C)(C)NC(=O)c1ccc(OCC[C@@H]2C[C@@H]2C2CCN(CC(F)(F)C(F)(F)F)CC2)cc1F	8.42
O=C(NCC1(O)CC1)c1ccc(OCC[C@@H]2C[C@@H]2C2CCN(CC(F)(F)C(F)(F)F)CC2)cc1F	8.52
CCC(F)(F)CN1CCC([C@H]2C[C@H]2CCOc2ccc(C(=O)NC3CC3)c(F)c2)CC1	8.27
Cc1nc(C#N)cc(OCC[C@@H]2C[C@@H]2C2CCN(CC(F)(F)F)CC2)n1	6.90
Cc1nnc(-c2ccc(OCC[C@@H]3C[C@@H]3C3CCN(CC(F)(F)F)CC3)cc2F)o1	7.23
O=C1Cc2cc(OCC[C@@H]3C[C@@H]3C3CCN(CC(F)(F)C(F)(F)F)CC3)cc(F)c2N1	8.15
CS(=O)(=O)c1ccc(OCC[C@@H]2C[C@@H]2C2CCN(CC(F)(F)C(F)(F)F)CC2)cc1F	8.36
